glycan array binding signal (z-score) values, listed per item
Target: Neu5Ac(a2-6)Gal(b1-4)GlcNAc(b1-2)Man(a1-3)[Gal(b1-4)GlcNAc(b1-2)Man(a1-6)]Man(b1-4)GlcNAc(b1-4)GlcNAc
Test: glycan array binding signal (z-score within array); higher = stronger binding
Settings: glycan notation: IUPAC condensed, linker removed
The full list was thinned out, with the strongest signals kept by preference.

binder: HHL-2 (Homo sapiens), P07307 (protein) MAKDFQDIQQLSSEENDHPFHQGEGPGTRRLNPRRGNPFLKGPPPAQPLAQRLCSMVCFSLLALSFNILLLVVICVTGSQSEGHRGAQLQAELRSLKEAFSNFSSSTLTEVQAISTHGGSVGDKITSLGAKLEKQQQDLKADHDALLFHLKHFPVDLRFVACQMELLHSNGSQRTCCPVNWVEHQGSCYWFSHSGKAWAEAEKYCQLENAHLVVINSWEEQKFIVQHTNPFNTWIGLTDSDGSWKWVDGTDYRHNYKNWAVTQPDNWHGHELGGSEDCVEVQPDGRWNDDFCLQVYRWVCEKRRNATGEVA
glycan array binding signal (z-score): 0.34
//
binder: BDCA2 ex-domain (Homo sapiens) (protein) MASHHHHHHIEGRGLNDIFEAQKIEWHESLVPRGSCPTPWTSFQSSCYFISTGMQSWTKSQKNCSVMGADLVVINTREEQDFIIQNLKRNSSYFLGLSDPGGRRHWQWVDQTPYNENVTFWHSGEPNNLDERCAIINFRSSEEWGWNDIHCHVPQKSICKMKKIY
glycan array binding signal (z-score): 2.93
//
binder: LecRKVI.2 (protein) RTTTNFAFRGFNGNQSKIRIEGAAMIKPDGLLRLTDRKSNVTGTAFYHKPVRLLNRNSTNVTIRSFSTSFVFVIIPSSSSNKGFGFTFTLSPTPYRLNAGSAQYLGVFNKENNGDPRNHVFAVEFDTVQGSRDDNTDRIGNDIGLNYNSRTSDLQEPVVYYNNDDHNKKEDFQLESGNPIQALLEYDGATQMLNVTVYPARLGFKPTKPLISQHVPKLLEIVQEEMYVGFTASTGKGQSSAHYVMGWSFSSGGERPIADVLILSELPPPPPNKAKKEGLNS
glycan array binding signal (z-score): 0.37
//
binder: SLR2P3F12 (Tachypleus tridentatus), TAL2_TACTR (protein) MEKGTPPTHDSDNWMGRAKKIGNGGWNQFQFLFFDPNGYLYAVSKDKLYKASPPQSDTDNWIARATEIGSGGWSGFKSLFFHPNGYLYAVHGQRLYKALPPVSNQD
glycan array binding signal (z-score): -0.422
//
binder: LCA (Lens culinaris), P02870 (protein) MASLQTQMISFYLIFLSILLTTIFFFKVNSTETTSFSITKFSPDQKNLIFQGDGYTTKGKLTLTKAVKSTVGRALYSTPIHIWDRDTGNVANFVTSFTFVIDAPSSYNVADEFTFFIAPVDTKPQTGGGYLGVFNSKEYDKTSQTVAVEFDTFYNAAWDPSNKERHIGIDVNSIKSVNTKSWNLQNGERANVVIAFNAATNVLTVTLTYPNSLEEENVTSYTLNEVVPLKDVVPEWVRIGFSATTGAEFAAHEVHSWSFHSELGGTSSSKQAADA
glycan array binding signal (z-score): -0.188
//
binder: Agalectin (Anopheles gambiae) (protein) MSNRPFTAKFPRYPENGDEVFIRGKLKDDAKSFSVNFCLPRPAQVAEHQTPPYIALHFKTIYDERDDTSRVVLNWKNLQWQQEEVLDNYWHVDRSQTFRVVFRLHEDCIKVFVNSVDHPPDYQFPVQLPLDQIESIELWDDVEHVEEISFRYDNGNSY
glycan array binding signal (z-score): -0.321
//
binder: XTP3-B-MRH1 (Homo sapiens), Q96DZ1 (protein) LLEPLFKQSSCSYRIESYWTYEVCHGKHIRQYHEEKETGQKINIHEYYLGNMLAKNLLFEKEREAEEKEKSNEIPTKNIEGQMTPYYPVGMGNGTPCSLKQNRPRSSTVMYICHPESKHEILSVAEVTTCEYEVVILTPLLCSHPKYRFRA
glycan array binding signal (z-score): -0.887
//
binder: SP15308B-bot-339-22-339 (Bacteroides ovatus) (protein) NEWEDEQYEQYVSFKAPIASGSDGVTTIYVRYKDNGKVTYQLPIIVSGSTVNSQDRDIHIAVDKDTLKTLNIERFSLYRPELWYTEMEEDKYEFPETVHIPAGSCVELLNIDFNLQDIDMLEKWVLPLTIVDDGSYAYQSHPRKNYAKALLKVVPFNNYSGSYTASSMKVYTYINGKPDTNARTTDKRTGYVVDNNSIFFYAGLINEDMDKDMRKKYKINVHFKEDGTLDMKQDDPSNEMEFELIGTPTYSSTSVMDATRPYLERRYVQIMFEYDFQDFTYGGSGTEVIPIKYRVAGSMTLLRNINTQIPDEDQQIEW
glycan array binding signal (z-score): 0.001

All values here come from the supplement of paper PMC8728848.
